Attribute: melting point
readout kind: melting point

| molecule | measurement |
| --- | --- |
| CN1C(=O)C(c2cc[nH]c2)(c2cccc(O)c2)N=C1N (stereo unspecified) | 142 to 145 °C |
| CN(CCCNc1ncc(Cc2ccc(F)cc2)c(=O)[nH]1)c1ccccn1 | 70 °C |
| CC(C)Cc1nnc2n1-c1ccc(Br)cc1C(c1ccccc1)=NC2 | 93 to 95 °C |
| COc1cc(Nc2ncnc3cc4cc(OCc5ccccc5)c(OC)cc4cc23)c(Cl)cc1Cl | 275 to 280 °C |
| O=C(N[C@H]1CC[C@H](CCN2CCN(c3nccc4c3OCC4)CC2)CC1)C(F)(F)F | 198 °C |
| O=P(O)(O)C(F)(F)P(=O)(O)O | 87 to 90 °C |

====

Attribute: melting point
readout kind: melting point

| chemical string | measurement |
| --- | --- |
| O=S1(=O)c2cccc3cccc(c23)N1CCN1CCC(Cc2cc3cc(F)ccc3[nH]2)CC1 | 154 °C |
| COC(=O)c1ccc2cc(-c3ccccc3)[nH]c2c1 | 208 to 210 °C |
| CCCn1nc2c(Cl)nc3ccccc3c2c1C | 145 to 147 °C |
| CCCCOC(=O)c1ccc(C#N)cc1 | 54 to 55 °C |

====

readout kind: melting point

| compound | measurement |
| --- | --- |
| O=[N+]([O-])c1ccc(C2CCOCC2)cc1 | 124 °C |
| CC(=O)Nc1cccc2c1CCC(NC(C)c1ccccc1)C2 (centres undefined) | 158 °C |
| Cc1cc(Cl)ccc1-c1cccc2c1OC(CN)CN2C (centres undefined) | 109 to 112 °C |
| COc1ccc(-n2ccnc2)cc1C(O)c1c(C)cc(C)cc1C (centres undefined) | 187 to 188 °C |
| CN1CCN(C(=O)OC2c3ccccc3C(=O)N2c2ccc3cccnc3n2)CC1 (centres undefined) | 183 °C |
| CCOC(=O)C1=C(NC(=O)Nc2cc(C(=O)OC(C)C)c(Br)cc2Br)CCC1 | 157 to 158 °C |
| Cn1c(SCSC#N)nc2ccccc2c1=O | 118 to 121 °C |
| CCCCc1nc(Cl)c(CC(=O)OCC)c(Cc2ccc(C(=O)OC(C)(C)C)cc2)n1 | 65 °C |
| COC(=O)c1cccc(N)c1CS(=O)(=O)NC(C)(C)C | 123 to 125 °C |
| CC1c2ccccc2CN1NC(=O)c1ccc(Cl)c(S(N)(=O)=O)c1 (centres undefined) | 208 to 210 °C |
| CCOC(=O)[C@H](CCc1ccccc1)N[C@@H](Cc1ccccc1)C(=O)NCCc1scnc1C(=O)O | 121 to 124 °C |
| O=[N+]([O-])c1c(O)c(O)cc2c1C(=NO)CC2 | 200 to 201 °C |
| CC(Oc1ccc(-c2cccc(S(=O)(=O)NCC(F)(F)F)c2)cc1)C(O)CCc1cccnc1 (centres undefined) | 47 to 48 °C |
| CN1CN(C)C(=O)N(C)C1=O | 88 to 90 °C |
| CCCCCCCSc1nc(C)c(O)c(C)n1 | 110 to 111 °C |
| O=C(Nc1cccc(S(=O)(=O)NC2CC2)c1)c1cnn2c(C(F)F)cc(-c3ccc(C(F)(F)F)cc3)nc12 | 252 °C |
| Cc1cc(C)c(COc2cccnc2NC(=S)Nc2ccc(Cl)cc2)c(C)c1 | 180 to 182 °C |
| CC[C@H](C)[C@H](Nc1nc2ccccc2c(=O)o1)C(=O)OC | 86 to 87 °C |
| COc1ccc(N2CCN(c3c(C)c(C)c4c(c3C)CC(C)(CN3CCC(O)CC3)O4)CC2)cc1 (centres undefined) | 139 to 143 °C |

Sourced from a melting point compilation (Tetko et al.; mined from patent text by program, amines drawn as free bases though some values may be those of a salt)
